tested on: hLTBP1-proTGFβ1 complex made by transfected cells (cell-based potency assay) (human, UniProt Q14766 347-1721; P01137 30-390)
Sequence (Q14766 347-1721, chain 1 of 2): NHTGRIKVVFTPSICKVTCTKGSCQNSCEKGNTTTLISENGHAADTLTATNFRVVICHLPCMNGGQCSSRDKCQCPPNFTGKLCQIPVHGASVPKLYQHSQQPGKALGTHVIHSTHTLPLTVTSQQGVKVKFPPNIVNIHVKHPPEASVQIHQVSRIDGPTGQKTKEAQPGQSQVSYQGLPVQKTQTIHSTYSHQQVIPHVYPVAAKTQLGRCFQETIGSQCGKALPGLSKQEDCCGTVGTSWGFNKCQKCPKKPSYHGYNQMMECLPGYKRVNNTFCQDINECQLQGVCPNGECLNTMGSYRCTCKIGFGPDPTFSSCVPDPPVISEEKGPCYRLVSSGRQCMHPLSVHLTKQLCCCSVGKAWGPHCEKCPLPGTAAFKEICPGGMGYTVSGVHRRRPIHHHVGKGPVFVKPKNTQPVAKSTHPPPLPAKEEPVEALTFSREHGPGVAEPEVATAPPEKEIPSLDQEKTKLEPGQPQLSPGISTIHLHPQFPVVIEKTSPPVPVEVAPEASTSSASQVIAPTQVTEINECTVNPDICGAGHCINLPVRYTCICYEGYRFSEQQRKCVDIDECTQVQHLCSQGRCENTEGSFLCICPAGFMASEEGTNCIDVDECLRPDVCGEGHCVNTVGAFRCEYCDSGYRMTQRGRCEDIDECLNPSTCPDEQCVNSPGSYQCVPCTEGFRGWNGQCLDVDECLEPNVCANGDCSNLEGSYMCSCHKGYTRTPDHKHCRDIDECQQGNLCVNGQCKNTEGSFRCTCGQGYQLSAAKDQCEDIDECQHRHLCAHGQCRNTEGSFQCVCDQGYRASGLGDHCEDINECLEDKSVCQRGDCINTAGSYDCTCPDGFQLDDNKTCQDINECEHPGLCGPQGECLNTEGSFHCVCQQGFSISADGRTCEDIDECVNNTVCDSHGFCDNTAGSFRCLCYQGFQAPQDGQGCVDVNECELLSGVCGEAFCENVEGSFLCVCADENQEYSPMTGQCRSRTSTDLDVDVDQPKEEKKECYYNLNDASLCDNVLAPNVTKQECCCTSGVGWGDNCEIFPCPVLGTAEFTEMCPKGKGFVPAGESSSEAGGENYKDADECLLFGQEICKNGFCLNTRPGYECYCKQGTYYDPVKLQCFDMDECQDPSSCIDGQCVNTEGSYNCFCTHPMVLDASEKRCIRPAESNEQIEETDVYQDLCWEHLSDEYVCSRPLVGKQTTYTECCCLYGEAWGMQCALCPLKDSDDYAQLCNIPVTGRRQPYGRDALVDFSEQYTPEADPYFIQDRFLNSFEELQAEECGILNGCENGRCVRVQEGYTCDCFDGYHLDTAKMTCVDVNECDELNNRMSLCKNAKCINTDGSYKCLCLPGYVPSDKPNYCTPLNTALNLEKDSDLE
Sequence (P01137 30-390, chain 2 of 2): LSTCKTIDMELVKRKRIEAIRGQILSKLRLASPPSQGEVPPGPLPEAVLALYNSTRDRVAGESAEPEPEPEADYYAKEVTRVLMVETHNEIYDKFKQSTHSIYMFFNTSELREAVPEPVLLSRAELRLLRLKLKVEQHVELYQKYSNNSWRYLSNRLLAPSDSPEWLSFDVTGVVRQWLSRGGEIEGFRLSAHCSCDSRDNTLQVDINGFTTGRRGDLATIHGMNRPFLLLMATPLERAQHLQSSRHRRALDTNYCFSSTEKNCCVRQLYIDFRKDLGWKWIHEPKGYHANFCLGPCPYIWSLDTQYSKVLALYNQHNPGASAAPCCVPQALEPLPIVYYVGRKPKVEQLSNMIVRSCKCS
experiment summary: cell-based or functional assay
quantity measured: IC50, reporter cell assay of TGFβ1 activation (nM)
I only need the number, in nM, no unit after it.

Query: Give me measured IC50, reporter cell assay of TGFβ1 activation, please, for this binder: Ab5 (antibody, V domains shown) VH: EVQLVESGGGLVQPGGSLRLSCAASGFTFSSFSMDWVRQAPGKGLEWVSYISPDASTIYYADSVKGRFTISRDNAKNSLYLQMNSLRAEDTAVYYCARGVLDYGDMLDPWGQGTLVTVSS VL: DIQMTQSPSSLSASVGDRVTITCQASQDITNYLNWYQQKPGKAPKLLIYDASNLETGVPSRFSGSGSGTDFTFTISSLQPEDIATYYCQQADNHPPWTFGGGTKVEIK
Result: 1.29
